GI50 overview
test system: OVCAR-4; assay: NCI tumour cell line growth inhibition, 48 h
The source made the active and inactive calls. No stated cut-off is given here; in the data, active = GI50 up to about 1.1 µM and inactive = higher.

C=C1C(=O)O[C@H]2C/C(C)=C/CC/C(C)=C/CC[C@@](C)(O)[C@@H](I)C[C@@H]12	4.94 µM (inactive)
c1ccc(SC(CCCCOC2CCCCO2)Sc2ccccc2)cc1 (stereo not given)	55.6 µM (inactive)
COC(=O)C12C3C4C1C1C2C3C41I (stereo not given)	> 100 µM (inactive)
CSc1nc2c(ncn2C2OCC(O)C(O)C2O)c(=O)[nH]1 (stereo not given)	> 100 µM (inactive)
COC(=O)C(/C(=N/NC(N)=O)C(=O)Nc1ccc(C)cc1)c1nc2ccc([N+](=O)[O-])cc2nc1O (stereo not given)	50.2 µM (inactive)

Name the reported GI50 value associated with the compound O=C1/C(=c2\s/c(=C\c3ccccc3)c(=O)n2-c2ccccc2)SC(=S)N1c1ccccc1
29.4 µM (inactive)

Name the reported GI50 value associated with the compound CCOC(=O)c1c(SCCN2CCCCC2)n(-c2ccccc2)c(=S)n(-c2ccccc2)c1=O
17.6 µM (inactive)

Name the reported GI50 value associated with the compound Clc1ccc(Cc2nc3cc(CCN4CCN(c5ccccc5)CC4)ccc3[nH]2)cc1
10.3 µM (inactive)

Name the reported GI50 value associated with the compound C=C1C(=O)OC2/C=C(\C)CC/C=C(\C)CC(OC(=O)/C(=C/CO)CO)[C@@H]12 (stereo not given in full)
13.1 µM (inactive)

Name the reported GI50 value associated with the compound COc1cc(C(C[N+](=O)[O-])SC(C)=O)ccc1OCc1ccccc1 (stereo not given)
14.4 µM (inactive)
